Some binders, each annotated with its measured OD value.
Assayed target: T1, human Nectin-4 extracellular antigen hNectin-4-His (human, UniProt Q96NY8 32-349)
T1 construct: C-terminal 8xHis tag included
T1 sequence: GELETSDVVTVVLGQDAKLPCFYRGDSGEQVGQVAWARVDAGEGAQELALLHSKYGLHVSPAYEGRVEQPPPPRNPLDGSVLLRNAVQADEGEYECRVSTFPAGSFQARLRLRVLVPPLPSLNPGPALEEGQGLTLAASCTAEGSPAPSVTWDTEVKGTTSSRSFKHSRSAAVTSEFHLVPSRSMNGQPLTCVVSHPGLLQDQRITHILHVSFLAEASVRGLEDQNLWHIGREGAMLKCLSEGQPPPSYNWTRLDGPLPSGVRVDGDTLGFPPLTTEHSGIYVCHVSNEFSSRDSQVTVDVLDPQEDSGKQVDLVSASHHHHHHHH
Experimental details: ELISA, phage scFv supernatant 1:50

These recorded examples may help you get a feel for the data.
1F3-1H3 scFv (scFv, V domains shown, phage clone supernatant) VH: EVQLVESGGGLVQPGGSLRLSCAASGFNFYNYGMSWVRQAPGKGLEWVSGIKPHSDVAHYADSVKGRFTISRDNSKNTLYLQMNSLRAEDTAVYYCARAELLAFDVYTASDYWGQGTLVTVSS VL: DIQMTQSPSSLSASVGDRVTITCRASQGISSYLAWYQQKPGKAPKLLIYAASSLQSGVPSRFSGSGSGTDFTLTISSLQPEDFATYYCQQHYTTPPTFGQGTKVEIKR: 1.73 OD
10F4-1B5 scFv (scFv, V domains shown, phage clone supernatant) VH: EVQLVESGGGLVQPGGSLRLSCAASGFNFTDYWMSWVRQAPGKGLEWVSSIIGDDSTNHYADSVKGRFTISRDNSKNTLYLQMNSLRAEDTAVYYCAREYSDVVDYVSVRTPLDYWGQGTLVTVSS VL: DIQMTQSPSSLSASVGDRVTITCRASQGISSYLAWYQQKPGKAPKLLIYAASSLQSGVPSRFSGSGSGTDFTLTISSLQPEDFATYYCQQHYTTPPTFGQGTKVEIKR: 1.53 OD
1F3-2F3 scFv (scFv, V domains shown, phage clone supernatant) VH: EVQLVESGGGLVQPGGSLRLSCAASGFNFSDYGMSWVRQAPGKGLEWVSRIDWDGGNTRYADSVKGRFTISRDNSKNTLYLQMNSLRAEDTAVYYCARAELLAFDVYTASDYWGQGTLVTVSS VL: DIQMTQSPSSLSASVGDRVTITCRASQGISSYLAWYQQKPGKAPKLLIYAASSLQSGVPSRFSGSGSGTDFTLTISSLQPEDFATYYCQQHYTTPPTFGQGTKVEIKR: 1.57 OD
1G8-1H6 scFv (scFv, V domains shown, phage clone supernatant) VH: EVQLVESGGGLVQPGGSLRLSCAASGFNFSGFAMSWVRQAPGKGLEWVSRIYPTSSESDYADSVKGRFTISRDNSKNTLYLQMNSLRAEDTAVYYCARQTEDRSYGYDLDYWGQGTLVTVSS VL: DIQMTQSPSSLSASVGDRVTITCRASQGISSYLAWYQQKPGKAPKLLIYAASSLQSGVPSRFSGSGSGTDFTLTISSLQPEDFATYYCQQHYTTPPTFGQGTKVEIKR: 1.58 OD

Input: Retrieve OD value measured for 10F4-1C4 scFv (scFv, V domains shown, phage clone supernatant) VH: EVQLVESGGGLVQPGGSLRLSCAASGFNFTDYWMSWVRQAPGKGLEWVSSIIGDDSTNHYADSVKGRFTISRDNSKNTLYLQMNSLRAEDTAVYYCAREYSDVVDYVSVRTPLDYWGQGTLVTVSS VL: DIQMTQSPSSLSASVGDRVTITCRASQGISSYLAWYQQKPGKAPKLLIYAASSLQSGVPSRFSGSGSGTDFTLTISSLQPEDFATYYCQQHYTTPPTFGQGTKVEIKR and print it.
Output: 1.46 OD

Each recorded value in this set is attributed to patent US20260144882A1.
